# TEST TARGET: Sodium-dependent serotonin transporter (Homo sapiens)
# Sequence (P31645 whole entry): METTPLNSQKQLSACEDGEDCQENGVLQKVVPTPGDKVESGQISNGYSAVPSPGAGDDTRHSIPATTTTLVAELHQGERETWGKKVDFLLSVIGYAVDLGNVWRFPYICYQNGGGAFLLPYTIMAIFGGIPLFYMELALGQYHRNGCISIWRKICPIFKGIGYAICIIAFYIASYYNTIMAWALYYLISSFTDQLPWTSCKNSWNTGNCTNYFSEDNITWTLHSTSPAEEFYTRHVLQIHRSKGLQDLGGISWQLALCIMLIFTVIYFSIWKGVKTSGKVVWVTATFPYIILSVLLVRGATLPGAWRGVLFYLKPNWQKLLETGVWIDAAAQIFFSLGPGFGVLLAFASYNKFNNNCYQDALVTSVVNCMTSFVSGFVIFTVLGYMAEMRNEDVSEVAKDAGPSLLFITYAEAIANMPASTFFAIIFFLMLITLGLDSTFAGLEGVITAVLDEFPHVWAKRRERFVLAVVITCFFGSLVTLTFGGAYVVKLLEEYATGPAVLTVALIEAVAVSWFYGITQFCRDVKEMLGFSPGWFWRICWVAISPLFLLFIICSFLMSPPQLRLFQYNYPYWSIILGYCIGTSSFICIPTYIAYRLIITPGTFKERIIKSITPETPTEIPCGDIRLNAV
# TEST PROTOCOL: Inhibition of human SERT expressed in CHO cells assessed as reduction in [3H]5-HT uptake preincubated for 10 mins followed by [3H]5-HT addition measured after 20 mins by liquid scintillation counting
VALUE KIND: IC50 (nM)
Give just the numeric value; nM need not be written.

INSERT INTO results (query_smiles, value_kind, assay_value) VALUES
  ('COCCOc1cc(CC2CCN(CCc3ccc4c(c3)C(=O)CCO4)CC2)ccc1C', 'IC50', 45.3);

Moving on to another compound below.
input: So what's the measured IC50 for this one? "COCCOc1cc(CC2CCN(CCc3ccc4c(c3)C(=O)CCO4)CC2)ccc1Cl"
output: 16.4
